target: PR (Homo sapiens, UniProt P06401); assay: AlphaScreen nuclear receptor profile (agonist mode), PR
pEC50: −log10 of the molar value.
outcome-measure: pEC50

Name the recorded pEC50 for CC[C@H]1[C@@H](O)[C@@H]2[C@H]([C@@H](O)C[C@]3(C)[C@@H]([C@H](C)CCC(=O)O)CC[C@@H]23)[C@@]2(C)CCCC[C@@H]12 .
< 3.52

---

test system: HepG2 cells; assay: In vitro cytotoxicity, cell viability by ATP content; type: cell-based; conditions: Homo sapiens, HepG2, read-out: ATP Content EC50
pEC50: −log10 of the molar value.
outcome-measure: pEC50

Name the recorded pEC50 for CC[C@H]1[C@@H](O)[C@@H]2[C@H]([C@@H](O)C[C@]3(C)[C@@H]([C@H](C)CCC(=O)O)CC[C@@H]23)[C@@]2(C)CCCC[C@@H]12 .
< 3.52
